Target: T1, exon 6 peptide (ASSLRNDSSSSNRKAKNPPGDS), coated on ELISA plate (not fully specified)
T1 construct: No biotin is mentioned for the ELISA coat; also called a peptide of SCF248
T1 peptide: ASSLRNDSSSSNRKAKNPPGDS
Experiment: direct ELISA on coated peptide, IgG4, read at 450 nm
observed property: absorbance at 5 ng/mL antibody (absorbance)
One number for each entry, in absorbance.

Sample answers from the record:
binder	absorbance at 5 ng/mL antibody / absorbance
A84P mutant expressed as full length IgG4 antibody (antibody, V domains shown, Full length IgG4) VH: QVQLVQSGAELKKPGSSVKISCKSSGYAFSSQWMNWVKQRPGQGLEWIGQIYPEDGDTHMNGKFKGKATLTADKSTSTAYMELSSLTSEDSAVYFCSSSNWVGSYWGQGTLVTVSS VL: DVVMTQSPLSLPVTLGQPASISCKSSQSLLEEDGNTYLNWLQQRPGQSPRRLIYLVDRLDIGVPDRFSGSGSGTDFTLKISRVEAEDVGVYYCWQGTDLPQTFGGGTKVEIK	1.48
D44P mutant expressed as full length IgG4 antibody (antibody, V domains shown, Full length IgG4) VH: QVQLVQSGAELKKPGSSVKISCKSSGYAFSSQWMNWVKQRPGQGLEWIGQIYPEDGDIHYNGKFKGKATLTADKSTSTAYMELSSLTSEDSAVYFCSSSNWVGSYWGQGTLVTVSS VL: DVVMTQSPLSLPVTLGQPASISCKSSQSLLEEDGNTYLNWLQQRPGQSPRRLIYLVDRLDSGVPDRFSGSGSGTDFTLKISRVEAEDVGVYYCWQGSHLPQTFGGGTKVEIK	1.98
A64P mutant expressed as full length IgG4 antibody (antibody, V domains shown, Full length IgG4) VH: QVQLVQSGAELKKPGSSVKISCKSSGYAFSSNWMNWVKQRPGQGLEWIGQIYPEDGDTHYNGKFKGKATLTADKSTSTAYMELSSLTSEDSAVYFCSSSNWVGSYWGQGTLVTVSS VL: DVVMTQSPLSLPVTLGQPASISCKSSQSLLEEDGNTYLNWLQQRPGQSPRRLIYLVNRLDDGVPDRFSGSGSGTDFTLKISRVEAEDVGVYYCWQGTDLPQTFGGGTKVEIK	1.41
H74P mutant expressed as full length IgG4 antibody (antibody, V domains shown, Full length IgG4) VH: QVQLVQSGAELKKPGSSVKISCKSSGYAFSSQWMNWVKQRPGQGLEWIGQIYPEDGDTHYNGKFKGKATLTADKSTSTAYMELSSLTSEDSAVYFCSSSNWVGSYWGQGTLVTVSS VL: DVVMTQSPLSLPVTLGQPASISCKSSQSLLEEDGNTYLNWLQQRPGQSPRRLIYLVDRLDLGVPDRFSGSGSGTDFTLKISRVEAEDVGVYYCWQGSHLPQTFGGGTKVEIK	1.3
H83P mutant expressed as full length IgG4 antibody (antibody, V domains shown, Full length IgG4) VH: QVQLVQSGAELKKPGSSVKISCKSSGYAFSSQWMNWVKQRPGQGLEWIGQIYPGDGDIHYNDKFKGKATLTADKSTSTAYMELSSLTSEDSAVYFCSSSNWVGSYWGQGTLVTVSS VL: DVVMTQSPLSLPVTLGQPASISCKSSQSLLESDGNTYLNWLQQRPGQSPRRLIYLVDRLDSGVPDRFSGSGSGTDFTLKISRVEAEDVGVYYCWQGTDLPQTFGGGTKVEIK	1.42

// moving on: another record for absorbance at 5 ng/mL antibody
Just so you know, measured absorbance at 5 ng/mL antibody for D14P mutant expressed as full length IgG4 antibody (antibody, V domains shown, Full length IgG4) VH: QVQLVQSGAELKKPGSSVKISCKSSGYAFSSQWMNWVKQRPGQGLEWIGQIYPGDDDTHYNDKFKGKATLTADKSTSTAYMELSSLTSEDSAVYFCSSSNWVGSYWGQGTLVTVSS VL: DVVMTQSPLSLPVTLGQPASISCKSSQSLLESDGNTYLNWLQQRPGQSPRRLIYLVDRLDLGVPDRFSGSGSGTDFTLKISRVEAEDVGVYYCWQGTDLPQTFGGGTKVEIK came out at 1.81

The reported measurements were obtained from patent US20240182556A1.
